experimental.system: T1, VEGF (human, UniProt P15692-4 27-191, limits assumed)
T1 construct: also called human VEGF; vascular endothelial growth factor
T1 sequence (P15692 other isoform, or with tags, fused parts or gaps limits assumed): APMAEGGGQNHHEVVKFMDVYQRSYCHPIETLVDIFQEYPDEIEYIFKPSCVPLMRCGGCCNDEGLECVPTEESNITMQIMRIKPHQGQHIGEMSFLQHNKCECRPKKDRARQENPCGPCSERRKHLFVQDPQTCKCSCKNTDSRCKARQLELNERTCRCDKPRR
assay.overview: BIAcore-2000 SPR, wt = Y0192
Readings of Kd (wt) / Kd (mut) for the listed binders
Entry rule: numbers only, all in ratio.

Completed entries (count: 2):
binder	unit.annotation	Kd (wt) / Kd (mut)
Y0238-1 (Fab, V domains shown, Library YC-81 (VH3) on the pY0192 template; substitutions deduced against Y0192; soluble Fab) VH: EVQLVESGGGLVQPGGSLRLSCAASGYTFTNYGINWVRQAPGKGLEWVGWINTYTGEPTYAADFKRRFTFSLDTSKSTAYLQMNSLRAEDTAVYYCAKYPYYRGTSHWYFDVWGQGTL VL: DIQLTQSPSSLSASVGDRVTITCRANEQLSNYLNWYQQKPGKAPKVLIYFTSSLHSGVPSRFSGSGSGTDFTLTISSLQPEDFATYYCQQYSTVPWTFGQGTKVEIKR	ratio	7.3
Y0243-1 (Fab, V domains shown, CDRH1 variant (T28D, N31H) from library HL-265; soluble Fab) VH: EVQLVESGGGLVQPGGSLRLSCAASGYDFTHYGMNWVRQAPGKGLEWVGWINTYTGEPTYAADFKRRFTFSLDTSKSTAYLQMNSLRAEDTAVYYCAKYPHYYGSSHWYFDVWGQGTL VL: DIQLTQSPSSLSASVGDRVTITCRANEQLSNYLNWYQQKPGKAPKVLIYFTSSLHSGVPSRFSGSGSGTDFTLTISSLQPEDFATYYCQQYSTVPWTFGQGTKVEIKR	ratio	4.1

Now consider the entry below.
// query Kd (wt) / Kd (mut) value for entry Y0244-1 (Fab, V domains shown, only the randomized region is printed, substitutions deduced against Y0192; soluble Fab from E. coli 34B8) VH: EVQLVESGGGLVQPGGSLRLSCAASGYTFTNYGINWVRQAPGKGLEWVGWINTYTGEPTYAADFKRRFTFSVDVSKSTAYLQMNSLRAEDTAVYYCAKYPHYYGSSHWYFDVWGQGTL VL: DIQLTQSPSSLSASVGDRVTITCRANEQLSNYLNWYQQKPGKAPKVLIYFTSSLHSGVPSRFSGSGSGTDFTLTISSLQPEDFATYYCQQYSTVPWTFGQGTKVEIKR
3.6
